Data credit: a melting point compilation (Tetko et al.; mined from patent text by program, amines drawn as free bases though some values may be those of a salt)

Listed molecules paired with reported melting point

Solved cases (3 shown):
INSERT INTO assay_data (molecule, result) VALUES
  ('CCc1nc2c(cnn2CC)c(NC2CCOCC2)c1CNC(=O)c1cccc(C(=O)NCc2cc(Cl)cc(-c3cccc(CN4CC(C)NC(C)C4)c3)c2)c1 (centres undefined)', '112 to 114 °C'),
  ('CC(C)(C)c1ccc(C(=O)Nc2cn3cc(Br)ccc3n2)cc1', '249 to 250 °C'),
  ('CCc1cnc2c(NC(=O)c3c(Cl)cccc3Cl)cccc2c1CCBr', '187 to 188 °C');

Q) Bench note: what melting point did C#CCOCCn1c(N2CCN(C)CC2)nc2ccccc21 show?
A) 145 to 146 °C

Q) I am curious: what melting point value has been reported for CCOC(=O)C(=CNC1CC1)C(=O)c1c(F)cc(F)c(F)c1N(Cc1ccccc1)C(C)=O ?
A) 119 to 121 °C

Q) Recorded melting point of COc1ccc(S(=O)(=O)N(Cc2ccccc2)[C@H](CC(C)C)C(=O)NO)cc1 , please.
A) 48 to 52 °C

Q) # melting point lookup, item O=C(Nc1cccc(C(F)(F)F)c1)Nc1nccnc1C(=O)O
A) > 300 °C

Q) Record request: melting point value, item CCCCNC(=O)Oc1ccc2oc3ccccc3c2c1
A) 124 to 126 °C

Q) Please report the recorded melting point for CC(C)OC(=O)c1cc(-c2ccncc2)sc1-c1ccncc1 .
A) 139 to 142 °C
